assay: LAP4-GFP expression modulators in yeast, confirmation, cell-based, cherry picks, flow cytometry, mother/daughter gates (AID 2271);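 further: ratio of sample to DMSO plate mean so 100% equals DMSO level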; conditions: S. cerevisiae LAP4-GFP strain, 3 h, measured here: daughter cell gate response, at 10 µM, stronger effect = higher value, 100 means same as DMSO control
test readout: GFP response relative to DMSO (%)

molecule | result number
O=C(NCc1ccc2c(c1)OCO2)c1nc(S(=O)(=O)Cc2ccccc2F)ncc1Cl | 104
NC(=O)CSCc1c(Cl)cccc1Cl | 103
Cc1nc2ccccc2n2c(O)c(CC(=O)O)cc12 | 96.5
CCCn1c(=O)c(C(=O)Nc2ccccc2)c(O)c2ccccc21 | 97.5
O=C(O)c1ccn2c(C(=O)c3ccc(Cl)cc3)c(-c3ccccc3)cc2c1 | 107
O=C(Nc1cccc(F)c1)c1ccccc1 | 97.5
O=C(OCC(=O)N1CCN(C(=O)c2ccco2)CC1)c1cc(-c2ccc(Cl)c(Cl)c2Cl)nc2ccccc12 | 99.2
CC(=O)Oc1ccc(/C=c2\sc3ncnn3c2=O)cc1 | 122
COc1ccc(-c2cc3cc(C(=O)O)ccn3c2C(=O)c2ccccc2)cc1 | 106
Oc1c(C(Nc2cccc(C(F)(F)F)c2)c2ccncc2)ccc2cccnc12 (stereo not drawn) | 120
Cc1c(N2C(=O)/C(=C\c3ccccc3O)SC2=S)c(=O)n(-c2ccccc2)n1C | 130
Cc1nnc(NC(=O)c2nc(S(=O)(=O)Cc3ccccc3C)ncc2Cl)s1 | 99
COC(=O)c1sc(-c2ccc(C(C)(C)C)cc2)cc1NC(=O)CCC(=O)O | 95.6
